- System: Cryptococcus gattii species complex
- PROTOCOL: Antimicrobial activity against Cryptococcus gattii by broth microdilution method
- Assay type: functional, Cryptococcus bacillisporus
Would you kindly list MIC90 for each of these molecules?
# value in µg/mL; strip the unit string

Prompt line: Give a short answer stating reported MIC90 for CCC(C)n1ncn(-c2ccc(N3CCN(c4ccc(OCC5COC(Cn6cncn6)(c6ccc(Cl)cc6Cl)O5)cc4)CC3)cc2)c1=O (stereo not drawn) [ITRACONAZOLE] .
Response line: 0.25

Prompt line: Give a short answer stating reported MIC90 for C[C@@H]1[C@H](O)[C@@H](C)/C=C/C=C/C=C/C=C/C=C/C=C/C=C/[C@H](O[C@@H]2O[C@H](C)[C@@H](O)[C@H](N)[C@@H]2O)C[C@@H]2O[C@](O)(C[C@@H](O)C[C@@H](O)[C@H](O)CC[C@@H](O)C[C@@H](O)CC(=O)O[C@H]1C)C[C@H](O)[C@H]2C(=O)O [AMPHOTERICIN B] .
Response line: 0.5

Prompt line: Give a short answer stating reported MIC90 for C[C@@H](c1nc(-c2ccc(C#N)cc2)cs1)[C@](O)(Cn1cncn1)c1cc(F)ccc1F [ISAVUCONAZOLE] .
Response line: 0.016
